Tested on: Gerbillinae
ASSAY_NAME: Inhibition of GR-73632-induced foot tapping in iv dosed gerbils after 24 hrs
Assay type: functional
CONDITION_DESCRIPTION: Gerbillinae, iv, 24 h; read-out: ID50 (the source's name)
ENDPOINT_NAME: ED50

Can you look up ED50 on Gerbillinae for C[C@@H](O[C@@H]1CN(C(=O)[C@@H]2CCC(=O)N2C)C[C@H]1c1ccc(F)cc1)c1cc(C(F)(F)F)cc(C(F)(F)F)c1 ?
1.2 mg/kg

Query ED50 on Gerbillinae for CCNC(=O)N1C[C@@H](O[C@H](C)c2cc(C(F)(F)F)cc(C(F)(F)F)c2)[C@H](c2ccc(F)cc2)C1
1 mg/kg

Write down the reported ED50 of CNC(=O)N1C[C@@H](O[C@H](C)c2cc(C(F)(F)F)cc(C(F)(F)F)c2)[C@H](c2ccc(F)cc2)C1 , test system: Gerbillinae.
3 mg/kg

Reported ED50 for Gerbillinae, given CC(=O)N1C[C@@H](O[C@H](C)c2cc(C(F)(F)F)cc(C(F)(F)F)c2)[C@H](c2ccccc2)C1 ?
3.2 mg/kg

Reported ED50 for Gerbillinae, given C[C@@H](O[C@@H]1CN(C2=CC(=O)C(O)C2)C[C@H]1c1ccc(F)cc1)c1cc(C(F)(F)F)cc(C(F)(F)F)c1 (single isomer, unassigned; diastereomer A) ?
0.7 mg/kg

Report ED50 for C[C@@H](O[C@@H]1CN(C2=CC(=O)CC2)C[C@H]1c1ccccc1)c1cc(C(F)(F)F)cc(C(F)(F)F)c1 tested on Gerbillinae.
1.1 mg/kg

Tell me reported ED50 for C[C@@H](O[C@@H]1CN(C2=CC(=O)CC2)C[C@H]1c1ccc(F)cc1)c1cc(C(F)(F)F)cc(C(F)(F)F)c1 , tested with Gerbillinae.
0.045 mg/kg

Give Gerbillinae ED50 for CC(C)NC(=O)N1C[C@@H](O[C@H](C)c2cc(C(F)(F)F)cc(C(F)(F)F)c2)[C@H](c2ccc(F)cc2)C1
0.8 mg/kg

----------
ASSAY_NAME: Oral bioavailability in rat
Assay type: ADME, organism-based
CONDITION_DESCRIPTION: in vivo
ENDPOINT_NAME: bioavailability
The reply should consist of the numeric value with the unit placed after it.

What value of bioavailability has been recorded for this entry: C[C@@H](O[C@@H]1CN(C2=CC(=O)CC2)C[C@H]1c1ccc(F)cc1)c1cc(C(F)(F)F)cc(C(F)(F)F)c1
100%

----------
ASSAY_NAME: Volume of distribution in dog
Format: ADME, organism-based, Canis lupus familiaris
CONDITION_DESCRIPTION: in vivo
ENDPOINT_NAME: Vd (L/kg)
Response body: numeric value in L/kg, unit text excluded.

Fill in: Vd of C[C@@H](O[C@@H]1CN(C2=CC(=O)CC2)C[C@H]1c1ccc(F)cc1)c1cc(C(F)(F)F)cc(C(F)(F)F)c1 is ___
1.6

----------
System: Gerbillinae
ASSAY_NAME: Inhibition of GR-73632-induced foot tapping in iv dosed gerbils
Type: functional
CONDITION_DESCRIPTION: Gerbillinae, iv; read-out: ID50 (the source's name)
ENDPOINT_NAME: ED50 (mg/kg)
// note: answer is a bare numeric in mg/kg

Find the recorded ED50 belonging to C[C@@H](O[C@@H]1CN(C2=CC(=O)CC2)C[C@H]1c1ccccc1)c1cc(C(F)(F)F)cc(C(F)(F)F)c1 and report it.
0.9

Item CNC(=O)N1C[C@@H](O[C@H](C)c2cc(C(F)(F)F)cc(C(F)(F)F)c2)[C@H](c2ccc(F)cc2)C1 has what recorded ED50?
1

Tell me the measured ED50 of C[C@@H](O[C@@H]1CN(C(=O)[C@@H]2CCC(=O)N2C)C[C@H]1c1ccc(F)cc1)c1cc(C(F)(F)F)cc(C(F)(F)F)c1 , please.
0.6

ED50 for C[C@@H](O[C@@H]1CN(C2=CC(=O)CC2)C[C@H]1c1ccc(F)cc1)c1cc(C(F)(F)F)cc(C(F)(F)F)c1 ?
0.1

What does the record list as ED50 for CC(=O)N1C[C@@H](O[C@H](C)c2cc(C(F)(F)F)cc(C(F)(F)F)c2)[C@H](c2ccccc2)C1 ?
0.6
